target: Cyclin-dependent kinase 2/cyclin E1 (Homo sapiens); assay: Inhibition of full length human […]/human N-terminal GST-tagged CyclinE1 (1 to 410 residues) expressed in baculovirus expression system using histone H1 as substrate measured after 90 mins by Kinase-Glo luminescence assay
pIC50: −log10 of the molar value.
reported-property: pIC50

Previously resolved entries follow.
Query: Tell me pIC50 reported for Cc1nc2cc(-c3c[nH]nc3C)sc2c(=O)[nH]1
Reply: 6.00

Query: Fill in pIC50 for record Cc1n[nH]cc1-c1cc2nc(C3CCCCC3)[nH]c(=O)c2s1
Reply: 5.66

Query: State, in one line, measured pIC50 of CCOCc1nc2cc(-c3c[nH]nc3C)sc2c(=O)[nH]1
Reply: 5.44

Query: Provide measured pIC50 value, entry: Cc1n[nH]cc1-c1cc2nc(C(c3ccccc3)N3CCCC3)[nH]c(=O)c2s1 (stereo unspecified)
Reply: 5.46

(a) Cc1n[nH]cc1-c1cc2nc(CNCc3ccccc3)[nH]c(=O)c2s1
(b) Cc1n[nH]cc1-c1cc2nc(-c3ccccc3)[nH]c(=O)c2s1
Query: Identify the entry with the smaller pIC50: a or b . Label of pick, please.
Reply: a

Cited source: ChEMBL document CHEMBL4033719
